assay: Plasma:Brain level study (PO and IV); type: in vivo; details: brain/plasma; 10 mg/kg; 1 h, IV; read-out: B:P
# reported Kp at 1 h; entries follow
Please respond with just the number, no unit label.

Known Kp at 1 h results, listed for orientation:
Cc1cc(-c2cnc3cc(-c4ccc(N5CCNCC5)cc4)ccn23)c2ccccc2n1 [Compound 25] : 0.66
Cc1cc(-c2cnc3cc(-c4ccc(N5CCNCC5)cc4)ccn23)c2cc(F)ccc2n1 [Compound 20] : 0.8

Entry Cc1cc(-c2cnc3cc(-c4ccc(N5CCNCC5)cc4)ccn23)c2cc(F)cc(F)c2n1 [Compound 17] — recorded Kp at 1 h = 1.05

Hey, just so you know, these numbers are from patent US20190218214A1.
